target: human recombinant IKK-β (Homo sapiens); assay: ELISA-based; assay type: biochemical
Sequence (O14920 whole entry): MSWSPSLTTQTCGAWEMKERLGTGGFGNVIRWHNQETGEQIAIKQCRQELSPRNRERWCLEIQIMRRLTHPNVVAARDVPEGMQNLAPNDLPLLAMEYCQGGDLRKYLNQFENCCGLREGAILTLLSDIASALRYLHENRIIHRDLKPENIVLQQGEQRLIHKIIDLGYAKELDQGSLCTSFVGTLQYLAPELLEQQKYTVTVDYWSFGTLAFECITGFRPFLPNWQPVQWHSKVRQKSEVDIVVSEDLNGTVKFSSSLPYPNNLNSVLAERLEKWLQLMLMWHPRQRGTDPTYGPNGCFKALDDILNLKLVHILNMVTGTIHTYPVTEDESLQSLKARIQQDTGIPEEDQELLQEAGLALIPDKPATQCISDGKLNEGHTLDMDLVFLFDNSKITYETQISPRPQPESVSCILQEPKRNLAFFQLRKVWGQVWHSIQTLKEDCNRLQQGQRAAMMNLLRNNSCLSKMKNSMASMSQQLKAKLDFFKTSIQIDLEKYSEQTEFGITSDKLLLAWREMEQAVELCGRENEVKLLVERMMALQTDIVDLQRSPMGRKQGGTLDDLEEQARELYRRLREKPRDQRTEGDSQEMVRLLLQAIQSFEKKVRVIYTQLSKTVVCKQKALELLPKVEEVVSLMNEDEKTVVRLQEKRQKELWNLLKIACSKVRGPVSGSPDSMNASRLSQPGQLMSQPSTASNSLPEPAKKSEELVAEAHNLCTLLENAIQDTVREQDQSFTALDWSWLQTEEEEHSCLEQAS
quantity: pIC50
Please report pIC50 as the negative decimal logarithm of the molar concentration, giving only the number.

Input line: May I ask what pIC50 has been recorded for `O=C(OCCC12CC3CC(CC(C3)C1)C2)c1ccc(NCc2cc(O)ccc2O)cc1` ?
Output line: 5.16
